# measurementTarget: T1, human-CD40-monomer protein (human, UniProt P25942 21-193, limits assumed)
# T1 construct: Soluble monomer generated in house, used as SPR analyte; also called hCD40; hCD40-monomer
# T1 sequence (P25942 21-193 limits assumed): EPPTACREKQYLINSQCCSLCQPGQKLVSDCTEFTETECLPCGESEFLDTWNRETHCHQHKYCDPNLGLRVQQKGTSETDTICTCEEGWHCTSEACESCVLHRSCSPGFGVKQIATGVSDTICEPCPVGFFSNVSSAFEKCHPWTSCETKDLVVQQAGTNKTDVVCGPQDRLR
# protocolSummary: SPR, Ab captured on protein A, hCD40 monomer 500 and 50 nM, 1:1 fit; supernatant
Cut-off 0.0009 s⁻¹ on koff: below means Met, at or above means Not met.

IN: In the record for Y12XX-hz42-P238K (antibody, human IgG1, kappa, V domains shown, also called Vh-hz14;Vk-hz3) VH: QVQLVQSGAEVKKPGSSVKVSCKASGYAFTSYWMHWVRQAPGQGLEWMGQINPTTGRSQYNEKFKTRVTITADKSTSTAYMELSSLRSEDTAVYYCARWGLQPFAYWGQGTLVTVSS VL: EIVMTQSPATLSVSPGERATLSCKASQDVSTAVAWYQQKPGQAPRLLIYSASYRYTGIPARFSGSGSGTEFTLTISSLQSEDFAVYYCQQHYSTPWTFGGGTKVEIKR , is koff less than 0.0009 s⁻¹?
OUT: Met

IN: In the record for Y12XX-hz8 (antibody, human IgG1, kappa, V domains shown, Humanized, IgG1-P238K; supernatant sample) VH: QVQLVQSGAEVKKPGSSVKVSCKASGYAFTSYWMHWVRQAPGQGLEWMGYINPTTGYSAYNQKFKDKATLTADKSTSTAYMELSSLRSEDTAVYYCARWDARPFAYWGQGTLVTVSS VL: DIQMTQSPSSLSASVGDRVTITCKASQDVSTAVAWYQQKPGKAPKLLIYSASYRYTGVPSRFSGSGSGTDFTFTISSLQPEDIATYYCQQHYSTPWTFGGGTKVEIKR , is koff less than 0.0009 s⁻¹?
OUT: Not met

IN: In the record for Y12XX-hz25 (antibody, human IgG1, kappa, V domains shown, Humanized, IgG1-P238K; supernatant sample) VH: QVQLVQSGAEVKKPGSSVKVSCKASGYAFTSYWMHWVRQRPGQGLEWIGQINPSNGRSQYNEKFKTRVTITADKSTSTAYMELSSLRSEDTAVYYCARWGLQPFAYWGQGTLVTVSS VL: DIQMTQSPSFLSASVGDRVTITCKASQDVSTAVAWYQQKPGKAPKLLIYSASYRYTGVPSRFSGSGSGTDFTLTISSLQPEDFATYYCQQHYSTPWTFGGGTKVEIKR , is koff less than 0.0009 s⁻¹?
OUT: Met

IN: In the record for Y12XX-hz16 (antibody, human IgG1, kappa, V domains shown, Humanized, IgG1-P238K; supernatant sample) VH: QVQLVQSGAEVKKPGSSVKVSCKASGYAFTSYWMHWVRQRPGQGLEWMGFINPTTGYSEYNQKFKDRVTITADKSTSTAYMELSSLRSEDTAVYYCARWGLPPFAYWGQGTLVTVSS VL: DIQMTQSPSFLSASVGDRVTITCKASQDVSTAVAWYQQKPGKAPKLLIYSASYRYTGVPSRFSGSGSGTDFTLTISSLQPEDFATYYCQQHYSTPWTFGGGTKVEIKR , is koff less than 0.0009 s⁻¹?
OUT: Met

IN: In the record for Y12XX-hz41 (antibody, human IgG1, kappa, V domains shown, Humanized, IgG1-P238K; supernatant sample) VH: QVQLVQSGAEVKKPGSSVKVSCKASGYAFTSYWMHWVRQAPGQGLEWMGQINPSNARSQYNEKFKTRVTITADKSTSTAYMELSSLRSEDTAVYYCARWGLQPFAYWGQGTLVTVSS VL: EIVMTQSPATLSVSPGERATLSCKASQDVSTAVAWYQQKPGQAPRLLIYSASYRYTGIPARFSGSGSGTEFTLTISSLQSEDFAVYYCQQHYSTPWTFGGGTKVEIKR , is koff less than 0.0009 s⁻¹?
OUT: Not met

IN: In the record for Y12XX-hz14 (antibody, human IgG1, kappa, V domains shown, Humanized, IgG1-P238K; supernatant sample) VH: QVQLVQSGAEVKKPGSSVKVSCKASGYAFTSYWMHWVRQAPGQGLEWMGQINPTTGRSQYNEKFKTRVTITADKSTSTAYMELSSLRSEDTAVYYCARWGLQPFAYWGQGTLVTVSS VL: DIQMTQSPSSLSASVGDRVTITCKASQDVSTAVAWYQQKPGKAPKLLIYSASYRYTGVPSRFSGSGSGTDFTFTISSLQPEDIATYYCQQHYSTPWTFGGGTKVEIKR , is koff less than 0.0009 s⁻¹?
OUT: Met

IN: In the record for Y12XX-hz13 (antibody, human IgG1, kappa, V domains shown, Humanized, IgG1-P238K; supernatant sample) VH: QVQLVQSGAEVKKPGSSVKVSCKASGYAFTSYWMHWVRQAPGQGLEWMGQINPSNARSQYNEKFKTRVTITADKSTSTAYMELSSLRSEDTAVYYCARWGLQPFAYWGQGTLVTVSS VL: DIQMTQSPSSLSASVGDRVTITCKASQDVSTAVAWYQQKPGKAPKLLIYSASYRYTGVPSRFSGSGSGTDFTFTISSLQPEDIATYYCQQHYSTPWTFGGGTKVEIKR , is koff less than 0.0009 s⁻¹?
OUT: Met

Recorded values, source patent US20240124597A1.
